tested on: Rattus norvegicus; assay: Anticonvulsant activity in rat assessed as protection against maximal electric shock-induced seizures at 40 mg/kg, ip; format: functional; conditions: route intraperitoneal
Mark YES for reported Activity of 60% or greater; mark NO for anything smaller.

Input line: Decide: is the reported value of Activity for COc1cc(C2C(Cl)C(=O)N2c2nnc(Cn3c4ccccc4c4ccccc43)o2)ccc1O (stereo not given) equal to or greater than 60%?
Output line: NO

New cases:
Input line: Decide: is the reported value of Activity for CN(C)c1ccc(C2C(Cl)C(=O)N2c2nnc(Cn3c4ccccc4c4ccccc43)s2)cc1 (stereo not given) equal to or greater than 60%?
Output line: NO

Input line: Decide: is the reported value of Activity for COc1cc(C2SCC(=O)N2c2nnc(Cn3c4ccccc4c4ccccc43)s2)ccc1O (stereo not given) equal to or greater than 60%?
Output line: YES

Input line: Decide: is the reported value of Activity for CN(C)c1ccc(/C=N/c2nnc(Cn3c4ccccc4c4ccccc43)o2)cc1 equal to or greater than 60%?
Output line: NO

Input line: Decide: is the reported value of Activity for O=C1C(Cl)C(c2ccc(O)cc2O)N1c1nnc(Cn2c3ccccc3c3ccccc32)s1 (stereo not given) equal to or greater than 60%?
Output line: NO

Values from ChEMBL document CHEMBL1177859
